# study_target: T1, human CD71 extracellular domain (human, UniProt P02786 89-760, biotinylated)
# T1 construct: also called hCD71; CD71-ECD
# T1 sequence (P02786 89-760): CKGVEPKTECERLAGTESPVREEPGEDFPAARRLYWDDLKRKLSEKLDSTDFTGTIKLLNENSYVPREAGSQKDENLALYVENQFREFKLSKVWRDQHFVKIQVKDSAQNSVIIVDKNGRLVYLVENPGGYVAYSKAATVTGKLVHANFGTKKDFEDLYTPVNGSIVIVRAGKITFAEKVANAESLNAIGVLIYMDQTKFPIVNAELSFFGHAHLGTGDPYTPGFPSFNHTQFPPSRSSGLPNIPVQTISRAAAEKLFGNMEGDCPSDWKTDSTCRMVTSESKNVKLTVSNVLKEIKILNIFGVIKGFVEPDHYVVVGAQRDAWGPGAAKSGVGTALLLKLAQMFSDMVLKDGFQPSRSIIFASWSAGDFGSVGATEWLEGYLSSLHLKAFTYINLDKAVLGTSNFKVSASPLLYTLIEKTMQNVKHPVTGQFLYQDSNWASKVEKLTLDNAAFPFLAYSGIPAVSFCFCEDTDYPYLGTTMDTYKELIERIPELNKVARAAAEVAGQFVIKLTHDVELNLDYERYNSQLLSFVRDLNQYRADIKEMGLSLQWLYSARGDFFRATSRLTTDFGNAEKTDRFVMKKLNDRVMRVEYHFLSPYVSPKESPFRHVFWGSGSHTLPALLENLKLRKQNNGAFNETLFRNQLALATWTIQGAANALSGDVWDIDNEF
# measurement_description: primary ELISA; further: test concentration or dose not given here
reported_metric: RLU (RLU)
// return numeric value only (unit: RLU, not printed)

Some entries whose results are on file:
binder: CD71-binding FN3 domain of SEQ ID NO: 471 (designed binder) MLPAPKNLVVSRVTEDSARLSWTAPDAAFDSFTIWYYESPTGGEAIVLTVPGSERSYDLTGLKPGTEYMVFIQGVKGGCFSTPLYAIFTT
RLU, RLU: 1.65e+06
//
binder: CD71-binding FN3 domain of SEQ ID NO: 450 (designed binder) MLPAPKNLVVSRVTEDSARLSWTAPDAAFDSFFIGYLEPQPPGEAISLFVPGSERSYDLTGLKPGTEYNVTIQGVKGGFPSEPLAAKFTT
RLU, RLU: 4.1e+06

# context switch: different binder, same RLU
Param item = CD71-binding FN3 domain of SEQ ID NO: 453 (designed binder) MLPAPKNLVVSRVTEDSARLSWTAQDAAFDSFFIGYLEPQPPGEAIALLVPGSERSYDLTGLKPGTEYNVTIQGVKGGFPSHPLSASFTT ; retrieve measured RLU.
4.95e+06
